Attribution: patent US20240307362A1

- Test system: Ba/F3-EGFR-insSVD
- assay.summary: Ba/F3 cell survival assay, EGFR-insSVD
- Type: cell-based
- condition.context: Mus musculus, BaF3, 48 h, read-out: BA/F3 (insSVD) IC50, cell viability, Cell Titer-Glo, 48 h, with 10 ng/mL EGF, without IL-3
Mark each entry Criterion met if its IC50 sits below 30 nM, and Criterion not met for all others.

molecule: Cc1cccc(Nc2c(-c3ccncc3OCC3OCC3(C)C)[nH]c3c2C(=O)NCC3)c1Cl (racemic)
assayed.target: Ba/F3-EGFR-insSVD
group.label: Criterion not met
--
molecule: COc1c(F)cccc1Nc1c(-c2ccncc2OCC2OCC2(C)C)[nH]c2c1C(=O)NCC2 (racemic)
assayed.target: Ba/F3-EGFR-insSVD
group.label: Criterion not met
--
molecule: COc1c(Cl)cccc1Nc1c(-c2ccncc2OC[C@@H]2CCO2)[nH]c2c1C(=O)NCC2
assayed.target: Ba/F3-EGFR-insSVD
group.label: Criterion met
--
molecule: O=C1NCCc2[nH]c(-c3ccncc3OCC3CCO3)c(Nc3cccc(Cl)c3Cl)c21 (racemic) [Example 10]
assayed.target: Ba/F3-EGFR-insSVD
group.label: Criterion not met
--
molecule: Cc1c(Cl)cccc1Nc1c(-c2ccncc2OCC2CCO2)[nH]c2c1C(=O)NCC2 (racemic)
assayed.target: Ba/F3-EGFR-insSVD
group.label: Criterion not met
--
molecule: Cc1c(F)cccc1Nc1c(-c2ccncc2OCC2(C)CCO2)[nH]c2c1C(=O)NCC2 (racemic)
assayed.target: Ba/F3-EGFR-insSVD
group.label: Criterion not met
--
molecule: COc1c(F)cccc1Nc1c(-c2ccncc2OC[C@H]2CCN2C)[nH]c2c1C(=O)NCC2
assayed.target: Ba/F3-EGFR-insSVD
group.label: Criterion not met
--
molecule: COc1c(F)cccc1Nc1c(-c2ccncc2OC[C@@H]2CCO2)[nH]c2c1C(=O)NCC2
assayed.target: Ba/F3-EGFR-insSVD
group.label: Criterion met
--
molecule: COc1c(Cl)cccc1Nc1c(-c2ccncc2OC[C@H]2CCN2CC(F)(F)F)[nH]c2c1C(=O)NCC2
assayed.target: Ba/F3-EGFR-insSVD
group.label: Criterion met
--
molecule: CCc1c(Cl)cccc1Nc1c(-c2ccncc2OCC2CCO2)[nH]c2c1C(=O)NCC2 (stereo not drawn)
assayed.target: Ba/F3-EGFR-insSVD
group.label: Criterion not met
--
molecule: COc1c(Cl)cccc1Nc1c(-c2ccncc2OCC2(C)CCO2)[nH]c2c1C(=O)NCC2 (racemic)
assayed.target: Ba/F3-EGFR-insSVD
group.label: Criterion not met
--
molecule: COc1c(Cl)cccc1Nc1c(-c2ccncc2OC[C@@H]2CCN2CC(F)(F)F)[nH]c2c1C(=O)NCC2
assayed.target: Ba/F3-EGFR-insSVD
group.label: Criterion not met
--
molecule: CCC1(COc2cnccc2-c2[nH]c3c(c2Nc2cccc(Cl)c2Cl)C(=O)NCC3)COC1
assayed.target: Ba/F3-EGFR-insSVD
group.label: Criterion not met
--
molecule: COc1c(Cl)cccc1Nc1c(-c2ccncc2OCCC2CCO2)[nH]c2c1C(=O)NCC2 (racemic) [Example 24]
assayed.target: Ba/F3-EGFR-insSVD
group.label: Criterion met
--
molecule: CCC1(COc2cnccc2-c2[nH]c3c(c2Nc2cccc(C)c2Cl)C(=O)NCC3)COC1
assayed.target: Ba/F3-EGFR-insSVD
group.label: Criterion not met
--
molecule: COc1c(Nc2c(-c3ccncc3OCC3CCO3)[nH]c3c2C(=O)NCC3)ccc(F)c1Cl (racemic)
assayed.target: Ba/F3-EGFR-insSVD
group.label: Criterion not met
--
molecule: COc1c(Cl)cccc1Nc1c(-c2ccncc2OCC2CCO2)[nH]c2c1C(=O)NCC2 (stereo not drawn)
assayed.target: Ba/F3-EGFR-insSVD
group.label: Criterion met
--
molecule: O=C1NCCc2[nH]c(-c3ccncc3OCC3COC3)c(Nc3cccc(F)c3Cl)c21
assayed.target: Ba/F3-EGFR-insSVD
group.label: Criterion not met
--
molecule: COc1c(F)cccc1Nc1c(-c2ccncc2OCC2(F)COC2)[nH]c2c1C(=O)NCC2
assayed.target: Ba/F3-EGFR-insSVD
group.label: Criterion not met
--
molecule: CCC1(COc2cnccc2-c2[nH]c3c(c2Nc2cccc(F)c2OC)C(=O)NCC3)COC1
assayed.target: Ba/F3-EGFR-insSVD
group.label: Criterion not met
--
molecule: COc1c(Cl)cccc1Nc1c(-c2ccncc2OCC2OCC2(C)C)[nH]c2c1C(=O)NCC2 (racemic)
assayed.target: Ba/F3-EGFR-insSVD
group.label: Criterion met
--
molecule: COc1c(Cl)cccc1Nc1c(-c2ccncc2OCCC2CCO2)[nH]c2c1C(=O)NCC2 (single isomer, unassigned; (+)) [Example 25]
assayed.target: Ba/F3-EGFR-insSVD
group.label: Criterion met
--
molecule: Cc1c(Cl)cccc1Nc1c(-c2ccncc2OCC2(C)CCO2)[nH]c2c1C(=O)NCC2 (racemic) [Example 80]
assayed.target: Ba/F3-EGFR-insSVD
group.label: Criterion not met
--
molecule: COc1c(Cl)cccc1Nc1c(-c2ccncc2OCC2(C)CCN2C)[nH]c2c1C(=O)NCC2 (stereo not drawn)
assayed.target: Ba/F3-EGFR-insSVD
group.label: Criterion met
--
molecule: COc1c(F)cccc1Nc1c(-c2ccncc2OCCC2CCO2)[nH]c2c1C(=O)NCC2 (single isomer, unassigned) [Example 44]
assayed.target: Ba/F3-EGFR-insSVD
group.label: Criterion not met
--
molecule: CCC1(COc2cnccc2-c2[nH]c3c(c2Nc2cccc(Cl)c2C)C(=O)NCC3)COC1
assayed.target: Ba/F3-EGFR-insSVD
group.label: Criterion not met
--
molecule: COc1c(Cl)cccc1Nc1c(-c2ccncc2OC[C@H]2CCO2)[nH]c2c1C(=O)NCC2
assayed.target: Ba/F3-EGFR-insSVD
group.label: Criterion not met
--
molecule: COc1c(Cl)cc(F)cc1Nc1c(-c2ccncc2OCC2(C)CCO2)[nH]c2c1C(=O)NCC2 (racemic)
assayed.target: Ba/F3-EGFR-insSVD
group.label: Criterion not met
--
molecule: Cc1c(Cl)cc(F)cc1Nc1c(-c2ccncc2OCC2CCO2)[nH]c2c1C(=O)NCC2 (racemic)
assayed.target: Ba/F3-EGFR-insSVD
group.label: Criterion not met
